- tested-system: T1, human GIP receptor (human) (UniProt P48546)
- T1 sequence (looked up): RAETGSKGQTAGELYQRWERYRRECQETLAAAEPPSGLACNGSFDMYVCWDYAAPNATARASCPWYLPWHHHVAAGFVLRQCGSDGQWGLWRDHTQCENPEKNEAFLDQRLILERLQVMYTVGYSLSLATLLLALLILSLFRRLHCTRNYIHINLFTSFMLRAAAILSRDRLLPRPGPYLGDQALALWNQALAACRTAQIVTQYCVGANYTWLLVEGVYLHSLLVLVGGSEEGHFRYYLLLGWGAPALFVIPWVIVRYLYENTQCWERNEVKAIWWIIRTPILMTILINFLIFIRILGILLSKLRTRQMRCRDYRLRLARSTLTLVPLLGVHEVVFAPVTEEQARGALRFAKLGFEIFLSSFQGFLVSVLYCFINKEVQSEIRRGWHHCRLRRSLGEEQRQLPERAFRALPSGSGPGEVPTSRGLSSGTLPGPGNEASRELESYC
- experiment-description: cell-based or functional assay
Provide the reported cAMP Rel EC50 (in the presence of 1% HSA) of each item.
Write the value in nM as a bare number.

response.value for YXQGTFTSDFSXXLDKKAQXAFIEWLLEGGSSSGAPPPGGT (Aib, Orn, αMeL; acylated lysine; amide; synthetic construct; SITE 2: note = 2-Aminoisobutyric Acid; SITE 12: note = L-ornithine; SITE 13: note = alpha-methyl-leucine; SITE 17: note = Lysine is chemically modified through conjugation of the epsilon-amino group of the Lysine side chain with (2-[2-(2-Amino-ethoxy)-ethoxy]-acetyl)-(gamma-Glu)) [Example 272] (field: cAMP Rel EC50 (in the presence of 1% HSA)) = 36.3

Documented cAMP Rel EC50 (in the presence of 1% HSA) of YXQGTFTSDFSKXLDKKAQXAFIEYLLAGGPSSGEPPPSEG (Aib, αMeL; acyl on Lys; C-terminal amide; synthetic construct; SITE 2: note = 2-Aminoisobutyric Acid; SITE 13: note = alpha-methyl-leucine; SITE 17: note = Lysine is chemically modified through conjugation of the epsilon-amino group of the Lysine side chain with (2-[2-(2-Amino-ethoxy)-ethoxy]-acetyl)-(gamma-Glu)-CO-(CH2) 16-CO2H; SITE 20: n) [Example 22] : 81

Short answer for YXQGTFTSDFSKXLDKKAQXAFIEYLLEXGPSSGEPPPSEG (Aib, αMeL; acylated Lys; C-terminal amide; synthetic construct; SITE 2: note = 2-Aminoisobutyric Acid; SITE 13: note = alpha-methyl-leucine; SITE 17: note = Lysine is chemically modified through conjugation of the epsilon-amino group of the Lysine side chain with (2-[2-(2-Amino-ethoxy)-ethoxy]-acetyl)-(gamma-Glu)-CO-(CH2) 16-CO2H; SITE 20: n) [Example 46] : cAMP Rel EC50 (in the presence of 1% HSA) was 19.6

Documented cAMP Rel EC50 (in the presence of 1% HSA) of YXQGTXTSDXSIXLDKKAQXAFIEYLEEGGPSSGAPPPSGTGE (Aib, αMeF(2F), 4Pal, αMeL; acylated lysine; amide; synthetic construct; SITE 2: note = 2-Aminoisobutyric Acid; SITE 6: note = alpha-methyl-2-fluoro-L-phenylalanine; SITE 10: note = 3-(4-Pyridyl)-L-alanine; SITE 13: note = alpha-methyl-leucine; SITE 17: note = Lysine is chemically modified through conjugation of the epsilon-amino group of the Lysine) [Example 622] : 1.19
